# tested target: PRMT1 (Homo sapiens, UniProt Q99873)
# Sequence (Q99873 1-353 isoform Q99873-3): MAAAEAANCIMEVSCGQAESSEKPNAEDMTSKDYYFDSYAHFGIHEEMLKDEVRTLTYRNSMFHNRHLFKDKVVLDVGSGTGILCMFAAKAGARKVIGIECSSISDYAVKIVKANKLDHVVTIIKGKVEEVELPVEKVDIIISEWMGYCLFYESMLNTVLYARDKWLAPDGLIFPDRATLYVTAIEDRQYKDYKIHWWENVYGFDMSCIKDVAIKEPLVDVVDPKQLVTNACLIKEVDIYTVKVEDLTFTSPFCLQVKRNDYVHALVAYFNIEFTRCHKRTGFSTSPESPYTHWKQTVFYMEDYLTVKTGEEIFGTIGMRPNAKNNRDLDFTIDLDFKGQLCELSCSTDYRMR
reported property: IC50 (µM)
Numbers only, in µM.

*Q* Entry under review: NC(=O)[C@H](CCCN=C(N)CCl)NC(=O)c1ccccc1 . Reported IC50?
*A* 225
